Target: T1, EsCas13d, nuclease-dead (Eubacterium siraeum, UniProt B0MS50, R295A;H300A;R849A;H854A)
T1 sequence: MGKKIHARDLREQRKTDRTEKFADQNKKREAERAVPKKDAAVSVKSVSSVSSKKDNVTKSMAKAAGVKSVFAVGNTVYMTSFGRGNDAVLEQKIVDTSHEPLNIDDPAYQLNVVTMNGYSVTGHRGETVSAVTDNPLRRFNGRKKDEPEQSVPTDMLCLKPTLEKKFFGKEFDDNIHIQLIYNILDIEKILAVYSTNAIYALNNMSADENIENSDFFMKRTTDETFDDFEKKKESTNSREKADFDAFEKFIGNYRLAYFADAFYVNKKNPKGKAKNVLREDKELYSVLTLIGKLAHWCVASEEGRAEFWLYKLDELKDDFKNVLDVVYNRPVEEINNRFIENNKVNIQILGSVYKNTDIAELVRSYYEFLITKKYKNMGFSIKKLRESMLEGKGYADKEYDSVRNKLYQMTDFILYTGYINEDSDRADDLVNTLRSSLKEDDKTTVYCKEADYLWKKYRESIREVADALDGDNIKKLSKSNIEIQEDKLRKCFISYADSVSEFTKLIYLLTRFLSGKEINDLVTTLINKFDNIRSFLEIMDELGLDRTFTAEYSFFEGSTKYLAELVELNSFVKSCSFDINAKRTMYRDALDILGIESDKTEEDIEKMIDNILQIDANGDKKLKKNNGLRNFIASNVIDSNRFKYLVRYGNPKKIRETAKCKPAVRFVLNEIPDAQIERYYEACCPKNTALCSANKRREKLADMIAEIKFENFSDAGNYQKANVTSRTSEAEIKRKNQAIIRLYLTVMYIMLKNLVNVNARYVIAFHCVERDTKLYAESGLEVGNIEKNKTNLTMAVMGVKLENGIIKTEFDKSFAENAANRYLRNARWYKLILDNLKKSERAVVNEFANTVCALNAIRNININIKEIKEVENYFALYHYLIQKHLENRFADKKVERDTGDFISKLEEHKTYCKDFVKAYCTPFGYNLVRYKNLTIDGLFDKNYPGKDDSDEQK
Experiment: crRNA (strand 1, pre-loaded); Mg2+; 40 mM Tris-HCl pH 7.5, 150 mM NaCl, 6 mM MgCl2, 1 mM DTT, 0.1% Tween-20, 0.2 mg/ml BSA; 25 C; 10 min per concentration, then washed
Details: tags: His6-TwinStrep-SUMO cleaved; N-terminal SNAP kept (SNAP-Surface 488); label: 3' end held by stalled T7 RNA polymerase
ASSAY_METRIC: log10 of Kd (log10 of the value in nM)
Give log10 of Kd, with Kd taken in nM.

Identify log10 of Kd associated with the binder target 1 insU 3' of 15,insA 3' of 13 (mixed) RNA 1: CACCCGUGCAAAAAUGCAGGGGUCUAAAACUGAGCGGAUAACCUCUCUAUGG RNA 2: GGGAAUGGAUCCACAUCUACGAAUUCGUACCAUAGAGUAGAGUUAUCCGCUCACCGAGAUCGGAAGAGCACACGU
1.01

Identify log10 of Kd associated with the binder target 1 U3G,C4U (mixed) RNA 1: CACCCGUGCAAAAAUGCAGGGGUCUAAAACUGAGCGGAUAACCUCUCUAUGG RNA 2: GGGAAUGGAUCCACAUCUACGAAUUCGUACCAUAGAGAGGUUAUCCGUGCACCGAGAUCGGAAGAGCACACGU
0.86

Identify log10 of Kd associated with the binder target 2 MT 5'PFS CAC 3'PFS UAU (mixed) RNA 1: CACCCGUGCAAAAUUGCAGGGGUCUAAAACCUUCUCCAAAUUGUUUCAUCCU RNA 2: GGGAAUGGAUCCACAUCUACGAAUUCCACAGGAUGAAACAAUUUGGAGAAGUAUAGAUCGGAAGAGCACACGU
0.27

Identify log10 of Kd associated with the binder target 1 U10C,U11G (mixed) RNA 1: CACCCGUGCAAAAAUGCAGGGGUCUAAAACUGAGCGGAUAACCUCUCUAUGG RNA 2: GGGAAUGGAUCCACAUCUACGAAUUCGUACCAUAGAGAGGGCAUCCGCUCACCGAGAUCGGAAGAGCACACGU
1.47

Identify log10 of Kd associated with the binder target 1 insC 3' of 20,insC 3' of 3 (mixed) RNA 1: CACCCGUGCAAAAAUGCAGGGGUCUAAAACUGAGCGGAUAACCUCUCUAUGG RNA 2: GGGAAUGGAUCCACAUCUACGAAUUCGUACCACUAGAGAGGUUAUCCGCUCCACCGAGAUCGGAAGAGCACACGU
0.93

Identify log10 of Kd associated with the binder target 1 C7G,G12A (mixed) RNA 1: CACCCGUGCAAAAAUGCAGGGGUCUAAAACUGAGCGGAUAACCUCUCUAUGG RNA 2: GGGAAUGGAUCCACAUCUACGAAUUCGUACCAUAGAGAGAUUAUGCGCUCACCGAGAUCGGAAGAGCACACGU
1.19

Identify log10 of Kd associated with the binder target 1 A18C,C22U (mixed) RNA 1: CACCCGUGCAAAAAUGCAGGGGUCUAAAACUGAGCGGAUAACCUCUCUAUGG RNA 2: GGGAAUGGAUCCACAUCUACGAAUUCGUAUCAUCGAGAGGUUAUCCGCUCACCGAGAUCGGAAGAGCACACGU
1.77

Identify log10 of Kd associated with the binder target 1 MT 5'PFS GCG 3'PFS AAG (mixed) RNA 1: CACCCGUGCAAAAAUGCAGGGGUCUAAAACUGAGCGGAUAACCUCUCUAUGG RNA 2: GGGAAUGGAUCCACAUCUACGAAUUCGCGCCAUAGAGAGGUUAUCCGCUCAAAGAGAUCGGAAGAGCACACGU
1.40

Identify log10 of Kd associated with the binder target 1 insG 3' of 14,insG 3' of 14 (mixed) RNA 1: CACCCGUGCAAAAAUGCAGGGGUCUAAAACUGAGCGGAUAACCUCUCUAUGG RNA 2: GGGAAUGGAUCCACAUCUACGAAUUCGUACCAUAGAGAGGGGUUAUCCGCUCACCGAGAUCGGAAGAGCACACGU
0.89

Identify log10 of Kd associated with the binder target 2 MT 5'PFS AGG 3'PFS AAU (mixed) RNA 1: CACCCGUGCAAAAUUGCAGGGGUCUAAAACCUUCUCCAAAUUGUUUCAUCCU RNA 2: GGGAAUGGAUCCACAUCUACGAAUUCAGGAGGAUGAAACAAUUUGGAGAAGAAUAGAUCGGAAGAGCACACGU
0.67

Identify log10 of Kd associated with the binder target 1 insC 3' of 15,insA 3' of 8 (mixed) RNA 1: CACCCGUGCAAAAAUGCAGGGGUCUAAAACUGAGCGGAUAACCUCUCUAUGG RNA 2: GGGAAUGGAUCCACAUCUACGAAUUCGUACCAUAGAGCAGGUUAUACCGCUCACCGAGAUCGGAAGAGCACACGU
1.30

Identify log10 of Kd associated with the binder target 2 MT 5'PFS CGC 3'PFS CGU (mixed) RNA 1: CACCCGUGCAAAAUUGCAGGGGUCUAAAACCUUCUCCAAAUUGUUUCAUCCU RNA 2: GGGAAUGGAUCCACAUCUACGAAUUCCGCAGGAUGAAACAAUUUGGAGAAGCGUAGAUCGGAAGAGCACACGU
0.54

Identify log10 of Kd associated with the binder target 2 MT 5'PFS AUU 3'PFS UCA (mixed) RNA 1: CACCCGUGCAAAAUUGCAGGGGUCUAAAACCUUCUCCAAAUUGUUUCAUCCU RNA 2: GGGAAUGGAUCCACAUCUACGAAUUCAUUAGGAUGAAACAAUUUGGAGAAGUCAAGAUCGGAAGAGCACACGU
0.85

Identify log10 of Kd associated with the binder target 1 insU 3' of 14,insU 3' of 9 (mixed) RNA 1: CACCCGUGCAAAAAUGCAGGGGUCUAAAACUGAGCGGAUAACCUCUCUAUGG RNA 2: GGGAAUGGAUCCACAUCUACGAAUUCGUACCAUAGAGAUGGUUAUUCCGCUCACCGAGAUCGGAAGAGCACACGU
1.72
